Listed here: molecules with reported pIC50 for p300 HAT domain (residues 1287-1666) (Homo sapiens (Human), UniProt Q09472).
pIC50: −log10 of the molar value.
readout-type: pIC50

- molecule: "COC1CCN(c2ccc(NC(=O)C(NCCc3ccc(C#N)cc3)c3ccccc3)nc2)CC1 (single isomer, unassigned) [66 Isomer 1]"
  pIC50: 6.84

I. CC(CNC(C(=O)Nc1ccc(N2CCN(CC(F)(F)F)C(=O)C2)cn1)c1ccccc1)c1ccc(C#N)cc1 (single isomer, unassigned) [103 Isomer 3]
II. CC(CNC(C(=O)Nc1ccc(-c2cnn(C)n2)cn1)c1ccccc1)c1ccc(C#N)cc1 (single isomer, unassigned) [98 Isomer 1]
III. Cn1cc(-c2ccc(NC(=O)C(NCCc3ccc(Cl)cc3)c3cnn(C)c3)nc2)cn1 (single isomer, unassigned) [148 Isomer 2]
Ascending by pIC50, please. Please express your ranking as an ordered list of the labels.
I, II, III

###

For reference, IC50 measured on p300 HAT domain (residues 1287-1666) (Homo sapiens (Human)):
readout-type: IC50 (µM)

- molecule: "N#Cc1ccc(CCNC(C(=O)Nc2ccc(-c3ccccc3)cn2)c2ccccc2)cc1 (single isomer, unassigned) [34 Isomer 2]"
  readout-type: "IC50"
  result-number: 0.361

a. Cn1cc(-c2ccc(NC(=O)C(NCCc3ccc(C#N)c(F)c3)c3ccccc3)nc2)cn1 (single isomer, unassigned) [85 Isomer 2]
b. C[C@H](CNC(C(=O)Nc1ccc(-c2cnn(C)c(=O)c2)cn1)c1ccccc1)c1ccc(C#N)cc1 (single isomer, unassigned) [139 Isomer 1]
Choose between a and b : whose measured IC50 value is numerically larger? // respond with label for picked entry
a
(a: 0.47 µM, b: 0.026 µM)

###

IC50 values recorded for p300 HAT domain (residues 1287-1666) (Homo sapiens (Human))
readout-type: IC50 (nM)

These solved cases illustrate the format of a correct answer.
- molecule: "N#Cc1ccc(CCNC(C(=O)Nc2ccc(N3CCC(F)(F)C3)cn2)c2ccccc2)cc1 (single isomer, unassigned) [77 Isomer 2]"
  readout-type: "IC50"
  measure-unit: "nM"
  result-number: 1980
- molecule: "CN1CCN(c2ccc(NC(=O)C(NCCc3ccc(Cl)cc3)c3ccccc3)nc2)CC1 (single isomer, unassigned) [69 Isomer 1]"
  readout-type: "IC50"
  measure-unit: "nM"
  result-number: 35.8

1. Cn1cc(-c2ccc(NC(=O)C(NCCc3ccc(C#N)c(F)c3)c3ccccc3)nc2)cn1 (single isomer, unassigned) [85 Isomer 1]
2. CC(CNC(C(=O)Nc1ccc(-c2cnn(C)c2)cc1)c1ccccc1)c1ccc(Cl)cc1 (single isomer, unassigned) [2 Isomer 3]
3. Cc1n[nH]c(C)c1-c1ccc(NC(=O)C(NC[C@@H](C)c2ccc(C#N)cc2)c2ccccc2)nc1 (single isomer, unassigned) [133 Isomer 2]
Please produce an ascending ranking of these molecules based on IC50. As an answer, provide the labels arranged in the order called for.
3, 1, 2

###

What follows is a record of IC50 for p300 HAT domain (residues 1287-1666) (Homo sapiens (Human), UniProt Q09472).
readout-type: IC50 (nM)

Illustrative cases are given below, each with its answer.
- molecule: "CC1(C)CCN(c2ccc(NC(=O)C(NCCc3ccc(C#N)cc3)c3ccccc3)nc2)CC1 (single isomer, unassigned) [65 Isomer 1]"
  assay-target: "p300 HAT domain (residues 1287-1666) (Homo sapiens (Human), UniProt Q09472)"
  IC50, nM: 477
- molecule: "CC(=O)N1CCN(c2ccc(NC(=O)C(NC[C@@H](C)c3ccc(C#N)cc3)c3cccc(F)c3)nc2)CC1 (single isomer, unassigned) [135 Isomer 2]"
  assay-target: "p300 HAT domain (residues 1287-1666) (Homo sapiens (Human), UniProt Q09472)"
  IC50, nM: 9.3
- molecule: "N#Cc1ccc(CCNC(C(=O)Nc2ccc(N3CCC4(COC4)C3)cn2)c2ccccc2)cc1 (single isomer, unassigned) [96 Isomer 1]"
  assay-target: "p300 HAT domain (residues 1287-1666) (Homo sapiens (Human), UniProt Q09472)"
  IC50, nM: 67.4
- molecule: "CC(CNC(C(=O)Nc1ccc(-c2cnn(C)n2)cn1)c1ccccc1)c1ccc(C(F)(F)F)cc1 (single isomer, unassigned) [99 Isomer 4]"
  assay-target: "p300 HAT domain (residues 1287-1666) (Homo sapiens (Human), UniProt Q09472)"
  IC50, nM: 28.3

a. Cn1cc(-c2ccc(NC(=O)C(NCCc3ccc(C#N)cc3Cl)c3ccccc3)nc2)cn1 (single isomer, unassigned) [51 Isomer 1]
b. CO[C@H]1CCN(c2ccc(NC(=O)C(NCC(C)c3ccc(C#N)cc3)c3ccccc3)nc2)C1 (single isomer, unassigned) [93 Isomer 1]
Lower value for measured IC50? Options: a , b State your choice using its label.
a

A. CC(CNC(C(=O)Nc1ccc(-c2cn(C)nn2)cn1)c1ccccc1)c1ccc(C#N)cc1 (single isomer, unassigned) [100 Isomer 2]
B. CNC(=O)Cn1cc(-c2ccc(NC(=O)C(NC[C@@H](C)c3ccc(C#N)cc3)c3ccccc3)nc2)cn1 (single isomer, unassigned) [146 Isomer 2]
C. Cn1cc(-c2cnc(NC(=O)C(NCCc3ccc(C#N)cc3)c3ccccc3)cc2F)cn1 (single isomer, unassigned) [74 Isomer 2]
D. CNC(=O)Cn1cc(-c2ccc(NC(=O)C(NC[C@@H](C)c3ccc(C#N)cc3)c3ccccc3)nc2)cn1 (single isomer, unassigned) [146 Isomer 1]
E. Cn1cc(-c2ccc(NC(=O)C(NCCc3ccc(C#N)cc3C(F)(F)F)c3ccccc3)nc2)cn1 (single isomer, unassigned) [95 Isomer 1]
Order the records by IC50, with each subsequent value no larger than the one before. List the labels in the requested order.
D, C, E, A, B
(D: 993 nM, C: 146 nM, E: 41.4 nM, A: 16.9 nM, B: 7.76 nM)

1. CC(CNC(C(=O)Nc1ccc(-c2cn[nH]c2)cn1)c1ccccc1)c1ccc(C#N)cc1 (single isomer, unassigned) [104 Isomer 2]
2. CC(CNC(C(=O)Nc1ccc(N2CCN(CC(F)(F)F)C(=O)C2)cn1)c1ccccc1)c1ccc(C#N)cc1 (single isomer, unassigned) [103 Isomer 2]
Param pair: 1 , 2 . Output: the one whose IC50 is numerically greater. Use the label to indicate which entry you chose.
2
(2: 14.3 nM, 1: 9.1 nM)

1. N#Cc1ccc(CCNC(C(=O)Nc2ccc(C3CCC3)cn2)c2ccccc2)cc1 (single isomer, unassigned) [46 Isomer 2]
2. CC(CNC(C(=O)Nc1ccc(-c2cnn(C)n2)cn1)c1ccccc1)c1ccc(C(F)(F)F)cc1 (single isomer, unassigned) [99 Isomer 1]
Would you let me know which has the greater IC50 value, 1 or 2 ? Respond with the label that goes with your answer.
2
(2: 869 nM, 1: 486 nM)
